tested on: HS729; experiment: relative viability vs DMSO control (72 h) (fraction); higher = more viable cells; conditions: 0.00457 µM
parameter: relative viability
Lab note: write the figure by itself, no unit.

{"columns": ["compound", "relative viability"],
 "data": [
  ["COc1cc2/c(=N/c3ccc(Br)cc3F)nc[nH]c2cc1OCC1CCN(C)CC1", 0.899]
]}

QUERY: Could you share what relative viability was measured for C[C@]1(O)C[C@@H](c2nc(-c3ccc4ccc(-c5ccccc5)nc4c3)c3c(N)nccn32)C1 , tested on HS729?
RESULT: 0.969

QUERY: Could you share what relative viability was measured for CNC(=O)c1cc(Oc2ccc(NC(=O)Nc3ccc(Cl)c(C(F)(F)F)c3)c(F)c2)ccn1 , tested on HS729?
RESULT: 1.02

QUERY: Could you share what relative viability was measured for CC(C)NC(=O)C1CCC(n2c(NC(=O)c3ccc(F)cc3)nc3ccc(CN4CCC(C(C)(C)O)CC4)cc32)CC1 (centres undefined) , tested on HS729?
RESULT: 0.945

* * *

tested on: HT1080; assay: relative viability vs DMSO control (72 h) (fraction); higher = more viable cells; conditions: 0.00152 µM
Parameter relative viability: see the listing below.

{"columns": ["cpd smiles", "relative viability"],
 "data": [
  ["Cn1cnc2c(F)c(Nc3ccc(Br)cc3F)c(C(=O)NOCCO)cc21", 1.09]
]}

QUERY: Which relative viability is reported for this compound? O=C(Nc1cnn2ccc(N3CCC[C@@H]3c3cc(F)ccc3F)nc12)N1CC[C@H](O)C1
RESULT: 1.05

QUERY: Which relative viability is reported for this compound? C=CC(=O)Nc1cccc(Oc2nc(Nc3ccc(N4CCN(C)CC4)cc3)nc3ccsc23)c1
RESULT: 1.07

* * *

Parameter relative viability: see the listing below.
test system: A204; assay: relative viability vs DMSO control (72 h) (fraction); higher = more viable cells; settings: 0.01372 µM
Where a name gives a salt, the structure may show the parent alone.
Lab note: write the figure by itself, no unit.

{"columns": ["compound", "relative viability"],
 "data": [
  ["CC(C)NC(=O)C1CCC(n2c(NC(=O)c3ccc(F)cc3)nc3ccc(CN4CCC(C(C)(C)O)CC4)cc32)CC1 (stereo unspecified)", 1.09]
]}

QUERY: Which relative viability is reported for this compound? COc1cccc2c1C(=O)c1c(O)c3c(c(O)c1C2=O)C[C@@](O)(C(=O)CO)C[C@@H]3O[C@H]1C[C@H](N)[C@H](O)[C@H](C)O1 [Doxorubicin Hydrochloride]
RESULT: 0.779

QUERY: Which relative viability is reported for this compound? CO[C@H]1C[C@@H]2CC[C@@H](C)[C@@](O)(O2)C(=O)C(=O)N2CCCC[C@H]2C(=O)O[C@H]([C@H](C)C[C@@H]2CC[C@@H](OP(C)(C)=O)[C@H](OC)C2)CC(=O)[C@H](C)/C=C(\C)[C@@H](O)[C@@H](OC)C(=O)[C@H](C)C[C@H](C)/C=C/C=C/C=C/1C
RESULT: 0.601

QUERY: Which relative viability is reported for this compound? CNC(=O)c1cc(Oc2ccc(NC(=O)Nc3ccc(Cl)c(C(F)(F)F)c3)c(F)c2)ccn1
RESULT: 1.08

QUERY: Which relative viability is reported for this compound? O=C(Nc1cnn2ccc(N3CCC[C@@H]3c3cc(F)ccc3F)nc12)N1CC[C@H](O)C1
RESULT: 1.11

QUERY: Which relative viability is reported for this compound? C=CC(=O)N1CCC[C@@H](n2nc(-c3ccc(Oc4ccccc4)cc3)c3c(N)ncnc32)C1
RESULT: 1.05

* * *

tested on: A204; assay: relative viability vs DMSO control (72 h) (fraction); higher = more viable cells; conditions: 0.00152 µM
Parameter relative viability: see the listing below.
Lab note: write the figure by itself, no unit.

{"columns": ["cpd smiles", "number"],
 "data": [
  ["Cc1cc(Nc2ncnc3ccc(NC4=NC(C)(C)CO4)cc23)ccc1Oc1ccn2ncnc2c1", 1.08],
  ["COc1cc2/c(=N/c3ccc(Br)cc3F)nc[nH]c2cc1OCC1CCN(C)CC1", 1.02]
]}

QUERY: Which relative viability is reported for this compound? Cn1cnc2c(F)c(Nc3ccc(Br)cc3F)c(C(=O)NOCCO)cc21
RESULT: 1.06

QUERY: Which relative viability is reported for this compound? Nc1cc(C(F)(F)F)c(-c2cc(N3CCOCC3)nc(N3CCOCC3)n2)cn1
RESULT: 1.05

QUERY: Which relative viability is reported for this compound? C=CC(=O)Nc1cccc(Oc2nc(Nc3ccc(N4CCN(C)CC4)cc3)nc3ccsc23)c1
RESULT: 1.06

QUERY: Which relative viability is reported for this compound? C=CC(=O)N1CCC([C@@H]2CCNc3c(C(N)=O)c(-c4ccc(Oc5ccccc5)cc4)nn32)CC1
RESULT: 1

* * *

system: RD-ES; experiment: relative viability vs DMSO control (72 h) (fraction); higher = more viable cells; details: 1.111 µM
parameter: relative viability
Lab note: write the figure by itself, no unit.

QUERY: Which relative viability is reported for this compound? Cc1ccc(F)c(NC(=O)Nc2ccc(-c3cccc4[nH]nc(N)c34)cc2)c1
RESULT: 1.01

QUERY: Which relative viability is reported for this compound? C=CC(=O)Nc1cccc(Oc2nc(Nc3ccc(N4CCN(C)CC4)cc3)nc3ccsc23)c1
RESULT: 0.975

* * *

system: SW1353; assay: relative viability vs DMSO control (72 h) (fraction); higher = more viable cells; conditions: 0.3704 µM
Structures can show the parent of a compound that is named as a salt.
Parameter relative viability: see the listing below.
Lab note: write the figure by itself, no unit.

Before answering, review these 5 worked examples.
{"columns": ["compound", "relative viability"],
 "data": [
  ["COc1cc2nccc(Oc3ccc(NC(=O)Nc4cc(C)on4)c(Cl)c3)c2cc1OC", 1.04],
  ["CC(C)NC(=O)C1CCC(n2c(NC(=O)c3ccc(F)cc3)nc3ccc(CN4CCC(C(C)(C)O)CC4)cc32)CC1 (stereo not given)", 0.929],
  ["CC[C@H](Nc1ncnc2[nH]cnc12)c1nc2cccc(F)c2c(=O)n1-c1ccccc1", 0.931],
  ["O=C(Nc1cnn2ccc(N3CCC[C@@H]3c3cc(F)ccc3F)nc12)N1CC[C@H](O)C1", 0.949],
  ["N#CC[C@H](C1CCCC1)n1cc(-c2ncnc3[nH]ccc23)cn1", 1.04]
]}

Consider now this further compound.
QUERY: Which relative viability is reported for this compound? COc1cccc2c1C(=O)c1c(O)c3c(c(O)c1C2=O)C[C@@](O)(C(=O)CO)C[C@@H]3O[C@H]1C[C@H](N)[C@H](O)[C@H](C)O1 [Doxorubicin Hydrochloride]
RESULT: 0.376

* * *

system: HT1080; assay: relative viability vs DMSO control (72 h) (fraction); higher = more viable cells; settings: 0.00017 µM
parameter: relative viability
Lab note: write the figure by itself, no unit.

{"columns": ["compound", "parameter", "number"],
 "data": [
  ["COc1cc2nccc(Oc3ccc(NC(=O)Nc4cc(C)on4)c(Cl)c3)c2cc1OC [Tivozanib]", "relative viability", 1.04],
  ["COc1c(OCCCN2CCOCC2)ccc2c1N=C(NC(=O)c1cnc(N)nc1)N1CCN=C21 [Copanlisib]", "relative viability", 1.15],
  ["CN1CCC(COc2cnc(-c3cccc(Cn4nc(-c5cccc(C#N)c5)ccc4=O)c3)nc2)CC1 [Tepotinib]", "relative viability", 1.1]
]}

QUERY: Which relative viability is reported for this compound? O=C(Cc1ccc(-c2ccc(OCCN3CCOCC3)cc2)cn1)NCc1ccccc1 [KX2-391]
RESULT: 1.07

QUERY: Which relative viability is reported for this compound? C=CC(=O)Nc1cccc(Oc2nc(Nc3ccc(N4CCN(C)CC4)cc3)nc3ccsc23)c1 [Olmutinib]
RESULT: 1.05

QUERY: Which relative viability is reported for this compound? C[C@@H]1COCCN1c1cc(-c2ccnn2C)c2ccnc(-c3ccn[nH]3)c2n1
RESULT: 1.04

QUERY: Which relative viability is reported for this compound? CN1CCN(c2ccc3nc(-c4c(N)c5c(F)cccc5[nH]c4=O)[nH]c3c2)CC1 [Dovitinib]
RESULT: 1.1

QUERY: Which relative viability is reported for this compound? CNC(=O)c1ccc(-c2cnc3ncc(Cc4ccc5ncccc5c4)n3n2)cc1F [Capmatinib]
RESULT: 1.06

* * *

system: RD-ES; test: standardised AUC of viability dose-response curve (72 h) (fraction (0-1)); higher = less growth inhibition (more resistant)
standardised AUC of 0.8 or higher: 1.0. Under 0.8: 0.0.

Examples from the recorded data:
{"columns": ["cpd smiles", "class"],
 "data": [
  ["Cn1cc(-c2cc3c(N4CCN(c5ncc([C@@](C)(N)c6ccc(F)cc6)cn5)CC4)ncnn3c2)cn1", 1.0],
  ["CC(=O)Nc1cccc(-n2c(=O)n(C3CC3)c(=O)c3c(Nc4ccc(I)cc4F)n(C)c(=O)c(C)c32)c1", 1.0],
  ["C=CC(=O)Nc1cccc(Oc2nc(Nc3ccc(N4CCN(C)CC4)cc3)nc3ccsc23)c1", 1.0],
  ["CO[C@H]1C[C@@H]2CC[C@@H](C)[C@@](O)(O2)C(=O)C(=O)N2CCCC[C@H]2C(=O)O[C@H]([C@H](C)C[C@@H]2CC[C@@H](OP(C)(C)=O)[C@H](OC)C2)CC(=O)[C@H](C)/C=C(\\C)[C@@H](O)[C@@H](OC)C(=O)[C@H](C)C[C@H](C)/C=C/C=C/C=C/1C", 0.0]
]}

QUERY: hey, is standardised AUC for this one >= 0.8? CC[C@H](Nc1ncnc2[nH]cnc12)c1nc2cccc(F)c2c(=O)n1-c1ccccc1
RESULT: 1.0

QUERY: hey, is standardised AUC for this one >= 0.8? COCc1c(-c2cc3cc(C)cc(OC)c3s2)c2c(N)ncnn2c1CN1CCNC(=O)C1
RESULT: 1.0

QUERY: hey, is standardised AUC for this one >= 0.8? C[C@@H](c1ccc2nccn2c1)n1nnc2ncc(-c3cnn(C)c3)nc21
RESULT: 1.0

QUERY: hey, is standardised AUC for this one >= 0.8? CN[C@@H]1C[C@H]2O[C@@](C)([C@@H]1OC)n1c3ccccc3c3c4c(c5c6ccccc6n2c5c31)C(=O)NC4
RESULT: 0.0

Value source: the supplement of paper PMC10883282
